Assay: photoluminescence quantum yield (fraction); solvent given as SMILES
Conditions: in CCCCCCC
Label Y when photoluminescence quantum yield >= 0.02; otherwise N.

| smilesStructure | categoryLabel |
| --- | --- |
| c1ccc2cc3c(cc2c1)-c1cccc2cc4ccccc4c-3c12 | Y |
| CN(C)c1ccc(/C=C/c2nc3ccccc3s2)cc1 | N |
| COc1ccc(C#Cc2ccc(C#N)cc2)cc1OC | Y |
| c1ccc2cc3cc4c(cc3cc2c1)-c1cccc2cccc-4c12 | Y |
| c1ccc2cc3c4c(ccc3cc2c1)-c1cccc2cccc-4c12 | Y |
| CN(C)c1ccc(/C=C/c2ccccn2)cc1 | N |

###

Assay: photoluminescence quantum yield (fraction); solvent given as SMILES
Conditions: in C1CCOC1
hey, just use True if measured photoluminescence quantum yield is less than 0.3, otherwise False

| compound | categoryLabel |
| --- | --- |
| CN(C)c1ccc(/C=C/c2nc3ccccc3s2)cc1 | True |
| COc1ccccc1C1=[N+]2C(=Cc3c4cc5ccccc5cc4c(-c4ccccc4OC)n3[B-]2(F)F)c2cc3ccccc3cc21 | True |
| c1ccc(-c2nn(-c3ccccc3)c3nc4ccccc4cc23)cc1 | False |
| CC(C)(C)c1ccc(/C=C/c2ccc(N(c3ccc(/C=C/c4ccc(C(C)(C)C)cc4)cc3)c3ccc(-c4nc5ccccc5nc4-c4ccc(N(c5ccc(/C=C/c6ccc(C(C)(C)C)cc6)cc5)c5ccc(/C=C/c6ccc(C(C)(C)C)cc6)cc5)cc4)cc3)cc2)cc1 | False |
| C1=Cc2ccccc2C(=Cc2ccc(-c3cc(-c4ccc(C=C5c6ccccc6C=Cc6ccccc65)cc4)c(-c4ccc(C=C5c6ccccc6C=Cc6ccccc65)cc4)cc3-c3ccc(C=C4c5ccccc5C=Cc5ccccc54)cc3)cc2)c2ccccc21 | True |
| CCCCCCc1ccc2c3c(ccc2c1)O[B-](c1ccccc1)(c1ccccc1)[N+](c1ccc([N+]2=Cc4c(ccc5cc(CCCCCC)ccc45)O[B-]2(c2ccccc2)c2ccccc2)cc1)=C3 | False |
| C(=C(c1ccccc1)c1ccccc1)c1ccc(-c2cc(-c3ccc(C=C(c4ccccc4)c4ccccc4)cc3)c(-c3ccc(C=C(c4ccccc4)c4ccccc4)cc3)cc2-c2ccc(C=C(c3ccccc3)c3ccccc3)cc2)cc1 | True |
| CCCCC(CC)CN1C(=O)c2cccc3c(C#Cc4ccc(N(c5ccccc5)c5ccccc5)cc4)ccc(c23)C1=O (centres undefined) | False |
| CC(=O)c1c2c(cc3ccc(N(C)C)cc13)CCC2 | False |
| COC(=O)C(Cc1ccc2oc(-c3ccc(-n4c5ccccc5c5ccccc54)cc3)nc2c1)NC(=O)OC(C)(C)C (centres undefined) | False |
| CCn1c2ccccc2c2cc(C#Cc3cc(C#Cc4ccc5c(c4)c4ccccc4n5CC)ncn3)ccc21 | False |
| F[Si-](F)(c1c2ccccc2cc2ccccc12)(c1c2ccccc2cc2ccccc12)c1c2ccccc2cc2ccccc12 | False |
| F[Si](c1c2ccccc2cc2ccccc12)(c1c2ccccc2cc2ccccc12)c1c2ccccc2cc2ccccc12 | True |
| CCCCCOc1cc2oc(=O)c3c4ccc(C#N)cc4c4ccc5cccc6c(c1)c2c3c4c56 | False |

###

Assay: photoluminescence quantum yield (fraction); solvent given as SMILES
Conditions: in ClCCl
Label 1 when photoluminescence quantum yield >= 0.2; otherwise 0.

| compound | categoryLabel |
| --- | --- |
| F[B-]1(F)n2c(c(-c3ccccc3)c3ccccc32)C(c2ccccc2)=C2C(c3ccccc3)=c3ccccc3=[N+]21 | 0 |
| COc1ccc(C#Cc2nc3ccccc3nc2-c2cn(C)c3ccccc23)cc1 | 0 |
| F[B-]1(F)Oc2ccc(Br)cc2-c2c3c(c4c([n+]21)CCc1ccccc1-4)CCc1ccccc1-3 | 1 |
| CCOC(=O)/N=c1/oc2ccc(OC)cc2cc1C#N | 0 |
| CC(C)(C)c1cc(-c2c3cc(c(-c4cc(C(C)(C)C)cc(C(C)(C)C)c4)c4ccc([nH]4)c(-c4ccc([N+](=O)[O-])cc4)c4nc(c(-c5ccc([N+](=O)[O-])cc5)c5ccc2[nH]5)C=C4)N=C3)cc(C(C)(C)C)c1 | 0 |
| C=C[Si]1(C)c2ccccc2-c2cc3c(cc21)-c1ccccc1[Si]3(C)C=C (centres undefined) | 1 |
| CCCCC(CC)COc1ccc2nc(-c3ccc(-c4c(C)noc4C)s3)sc2c1 (centres undefined) | 1 |
| c1ccc2c(c1)OP1(=NP3(=NP(Oc4ccc5ccc6cccc7ccc4c5c67)(Oc4ccc5ccc6cccc7ccc4c5c67)=N1)Oc1ccccc1-c1ccccc1O3)Oc1ccccc1-2 | 1 |
| O=P1(c2ccccc2)c2ccccc2-c2sc3ccccc3c21 (centres undefined) | 1 |

###

Assay: photoluminescence quantum yield (fraction); solvent given as SMILES
Settings: in CCOC(C)=O
hey, just use TRUE if measured photoluminescence quantum yield is less than 0.3, otherwise FALSE

| compound | categoryLabel |
| --- | --- |
| OB(O)c1ccc(-c2ccc(N(c3ccccc3)c3ccccc3)cc2)cc1 | FALSE |
| CCN(CC)c1ccc2c(c1)oc(=O)c1cc3c(-c4ccccc4)nn(C)c3nc12 | TRUE |
| C#CCNC1=C2C=C(c3cc4n(c3)[B-](F)(F)[N+]3=CC=CC3=C4c3c(C)cc(C)cc3C)C(C)=[N+]2[B-](F)(F)n2c(C)ccc21 | TRUE |
| CCn1c2sccc2c2c3nsnc3c3c4ccsc4n(CC)c3c21 | FALSE |
| COC(=O)c1nc(-c2ccccc2)oc1C | FALSE |
| COc1ccc(C#Cc2nc3ccccc3nc2-c2cn(C)c3ccccc23)cc1 | TRUE |
| COC(=O)C(Cc1ccc2oc(-c3ccc(-n4c5ccccc5c5ccccc54)cc3)nc2c1)NC(=O)OC(C)(C)C (centres undefined) | FALSE |
| COc1ccc([C@@H]2C[C@](O)(c3ccccn3)C[C@](O)(c3ccccn3)[C@H]2C(=O)c2ccc(N(c3ccccc3)c3ccccc3)cc2)cc1 | FALSE |
| Cc1ccccc1C1=C2C=c3c(oc4c3ccc3ccccc34)=[N+]2[B-](F)(F)n2c1cc1c3ccc4ccccc4c3oc12 | FALSE |
| COc1cc(N(c2ccc(C=C(C#N)C#N)c(OC)c2)c2ccc(C=C(C#N)C#N)c(OC)c2)ccc1C=C(C#N)C#N | TRUE |
| O=C1c2ccccc2-c2ccc(N3CCN(c4ccccc4)CC3)c3cccc1c23 | TRUE |
| CCn1c2ccccc2c2c(C#N)c3c(ccc4c3cnn4C)nc21 | FALSE |
| CN(C)c1ccc(/C=C/c2nc3ccccc3s2)cc1 | TRUE |
| CN1C(=O)/C(=C/c2ccncc2)N=C1c1ccccc1 | TRUE |
| O=C(c1ccc(N(c2ccccc2)c2ccccc2)cc1)[C@H]1[C@H](c2ccccc2)C[C@](O)(c2ccccn2)C[C@]1(O)c1ccccn1 | FALSE |
| CC1=CC(C)=[N+]2C1=C(c1ccc(N3CCCCC3)cc1)c1c(C)cc(C)n1[B-]2(F)F | TRUE |
| Nc1ncnc2c1c(-c1ccc3ccccc3c1)nn2[C@H]1C[C@H](O)[C@@H](CO)O1 | TRUE |
| COc1ccc2n1[B-](F)(F)[N+]1=C(c3ccccc3)C=CC1=C2c1ccc(C)cc1 | TRUE |
| Cc1ccc(C2CC(c3ccc(O)cc3)=NN2c2ccc(S(N)(=O)=O)cc2)cc1 (centres undefined) | FALSE |
| CN(C)/C=N\c1ccc2c3c(cccc13)C(=O)c1ccccc1-2 | TRUE |
| c1ccc(-c2cc(-c3ccc(-c4nc(-c5ccccn5)c(-c5ccccn5)[nH]4)cc3)cc(-c3ccccn3)n2)nc1 | TRUE |
| Clc1nc(Cl)nc(Nc2ccc3cc4ccccc4cc3c2)n1 | TRUE |
| COc1ccc(C#Cc2ccc(C#N)cc2)cc1OC | TRUE |
| c1ccc2c(-n3c4ccccc4c4ccccc43)cccc2c1 | FALSE |
| COc1ccc(-n2c3ccccc3c3cc(C=C(C#N)C#N)ccc32)cc1 | TRUE |
| Cc1oc(-c2ccccc2)nc1C(=O)O | FALSE |
| O=C1/C(=C\c2ccc3oc4ccccc4c3c2)S(=O)(=O)c2ccccc21 | TRUE |
| COc1ccc(/C=C2\OC(=O)c3cc(N)ccc32)cc1 | TRUE |
| CN(C)c1cc(C#N)c(N(C)C)c(C#N)c1 | FALSE |
| Cc1ccc(C2=C3C=C(I)C=[N+]3[B-](F)(F)n3c2cc(I)c3I)cc1 | TRUE |
| O=C(O)c1cc2c(cc3ccc4cccc5ccc2c3c45)[nH]1 | FALSE |
| Cc1ccc(C2=C3C=C(I)C(I)=[N+]3[B-](F)(F)n3c2cc(I)c3I)cc1 | TRUE |
| COc1cc2c(cc1-c1ccccc1)Cc1c3c(c4c(c1-2)-c1cc(OC)c(-c2ccccc2)cc1C4)C(=O)N(CCC(C)C)C3=O | FALSE |
| COc1cc2c(cc1C=C(C#N)C#N)c1ccccc1n2C | TRUE |
| Cc1ccccc1C1=C2C=c3c(oc4ccc(C(C)(C)C)cc34)=[N+]2[B-](F)(F)n2c1cc1c3cc(C(C)(C)C)ccc3oc12 | FALSE |
| F[B-]1(F)OC(c2ccccc2)=Nc2sc(-c3ccccc3)n[n+]21 | TRUE |
| CCOC(=O)CN(CC(=O)OCC)c1ccc(-c2cc(-c3ccccn3)nc(-c3ccccn3)c2)cc1 | FALSE |
| COc1cccc(OC)c1C1=C2C(C)=CC(C)=[N+]2[B-](F)(F)n2c(C)cc(C)c21 | FALSE |
| COc1ccc(/C=C/C2=[O+][B-](F)(F)OC(/C=C/c3ccc(OC)cc3)=C2c2ccccc2)cc1 | FALSE |
